system: OVCAR-4 ovarian; assay: NCI tumour cell line growth inhibition, 48 h
Assignment: determine reported TGI for the given compounds.

- compound: "CCOC(=O)Nc1ccc(C(=O)/C=C/c2ccccc2)cc1"
  TGI: "> 100 µM"
- compound: "CC1(Cc2cc3c(cc2C2(c4ccc([N+](=O)[O-])cc4)OCCO2)OCO3)OCCO1"
  TGI: "> 100 µM"
- compound: "CCCC(CCC)Oc1ccc(CCCC2=C(O)c3ccccc3C(=O)C2=O)cc1"
  TGI: "20.5 µM"
- compound: "CCOC(=O)C1=C(C)N(NC(=O)OC)C2(N)N(NC(=O)OC)C(C)=C(C(=O)OCC)C12C#N (stereo not given)"
  TGI: "> 100 µM"

Batch request: TGI per item, same order as input.
1. Nc1ncnc2c1ncn2[C@@H]1C[C@H](NO)[C@@H](O)[C@H]1O
2. Cc1ccc(S(=O)(=O)NC(=O)NCC(N)=O)cc1
3. Oc1cc2c(cc1C(c1ccc3c(c1)OCO3)N1CCN(C(c3ccc4c(c3)OCO4)c3cc4c(cc3O)OCO4)CC1)OCO2 (stereo not given)
4. CNC(C)[C@H]1CCC2C3CCC4C[C@@H](N(C)C(=O)c5ccccc5)CC[C@]4(C)C3CC[C@@]21C (stereo not given in full)
5. Cc1cccc2c(N=Nc3ccccc3[N+](=O)[O-])c(O)[nH]c12

["> 100 µM", "> 100 µM", "16.5 µM", "16.4 µM", "16.9 µM"]

Tell me its TGI given "CN(N=O)C(=O)Nc1ccc(C(=O)O)cc1" as the entry.
> 100 µM

Cited source for all entries: PubChem BioAssay (NCI)
